- TEST TARGET: hCA IX (Homo sapiens)
- Construct: gene CA9; recombinant, obtained in-house
- EXPERIMENT DESCRIPTION: stopped-flow CO2 hydration
- Assay type: biochemical
- SETUP CONDITIONS: read-out: KI (nM) ^* / CA IX
Label key: rule met means Ki under 100 nM; rule not met means Ki of 100 nM or more.

> print(dat)
                                given.smiles    class.name
 1   COc1ccc(-c2ccc3c(c2)C=CCS(=O)(=O)O3)cc1  rule not met
 2                O=S1(=O)CC=Cc2cccc(Br)c2O1  rule not met
 3      O=S1(=O)CC=Cc2ccc(-c3ccc(F)cc3)cc2O1      rule met
 4  CCOC(=O)c1ccc(-c2ccc3c(c2)C=CCS(=O)(=O)O3)cc1  rule not met
 5                 O=S1(=O)CC=Cc2cc(I)ccc2O1      rule met
 6                O=S1(=O)CC=Cc2ccc(Br)cc2O1      rule met
 7         O=S1(=O)CC=Cc2ccc(-c3ccccc3)cc2O1  rule not met
 8  O=S1(=O)CC=Cc2cccc(-c3ccc(C(F)(F)F)cc3)c2O1  rule not met
 9         O=S1(=O)CC=Cc2cc(-c3ccccc3)ccc2O1  rule not met
10  CCOC(=O)c1ccc(-c2cccc3c2OS(=O)(=O)CC=C3)cc1  rule not met
11   COc1ccc(-c2ccc3c(c2)OS(=O)(=O)CC=C3)cc1      rule met
12     COc1ccc(-c2cccc3c2OS(=O)(=O)CC=C3)cc1  rule not met

###

- TEST TARGET: hCA XII (Homo sapiens)
- Construct: gene CA12; recombinant, obtained in-house
- Sequence (O43570 25-354): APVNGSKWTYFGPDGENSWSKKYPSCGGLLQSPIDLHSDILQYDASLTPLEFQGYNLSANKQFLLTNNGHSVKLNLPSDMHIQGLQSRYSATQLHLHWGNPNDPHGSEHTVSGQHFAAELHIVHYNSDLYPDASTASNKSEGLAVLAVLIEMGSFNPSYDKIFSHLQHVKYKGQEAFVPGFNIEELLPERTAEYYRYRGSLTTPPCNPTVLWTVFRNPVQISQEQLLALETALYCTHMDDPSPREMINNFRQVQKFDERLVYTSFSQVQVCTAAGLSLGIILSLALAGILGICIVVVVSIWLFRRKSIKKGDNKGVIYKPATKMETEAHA
- EXPERIMENT DESCRIPTION: stopped-flow CO2 hydration
- Type: biochemical
- SETUP CONDITIONS: CO2 […], Hepes pH […] Na2SO4, […] h preincubation at room temperature; read-out: KI (nM) ^* / CA XII
QUANTITY NAME: Ki (nM)

> print(dat)
                           given.smiles             test.target  unit.of.measurement  data.value
1  O=S1(=O)CC=Cc2ccc(-c3ccc(F)cc3)cc2O1  hCA XII (Homo sapiens)                   nM        77.9

###

Quick reference for Ki among some molecules
- TEST TARGET: hCA IX (Homo sapiens, UniProt Q16790)
- Construct: gene CA9; recombinant, obtained in-house
- EXPERIMENT DESCRIPTION: stopped-flow CO2 hydration
- Format: biochemical
- SETUP CONDITIONS: read-out: KI (nM) ^* / CA IX
QUANTITY NAME: Ki

> print(dat)
                                   molecule  quantity.name  data.value
1  CCOC(=O)c1ccc(-c2ccc3c(c2)OS(=O)(=O)CC=C3)cc1 [compound 25]             Ki     79.8 nM
2  O=S1(=O)CC=Cc2cccc(-c3ccccc3)c2O1 [compound 30]             Ki    21100 nM
3  O=S1(=O)CC=Cc2cccc(-c3ccc(F)cc3)c2O1 [compound 32]             Ki    33700 nM
4  O=S1(=O)CC=Cc2cc(-c3ccc(F)cc3)ccc2O1 [compound 10]             Ki      331 nM
5  O=S1(=O)CC=Cc2cc(-c3ccc(C(F)(F)F)cc3)ccc2O1 [compound 11]             Ki      221 nM

Origin of values: paper PMC6896485
